The next entries give measured pKi for Muscarinic acetylcholine receptor M4 (Mus musculus).
To interpret pKi, take it as minus log10 of a concentration measured in moles per litre.

# count of solved cases: 4
[
  {
    "Molecule": "COc1ccccc1CNCCCCCCNCCCCCCCCNCCCCCCNCc1ccccc1OC",
    "Assay System": "Muscarinic acetylcholine receptor M4 (Mus musculus)",
    "pKi": 6.80
  },
  {
    "Molecule": "CN1CCN(CC(=O)N2c3ccccc3C(=O)Nc3cccnc32)CC1",
    "Assay System": "Muscarinic acetylcholine receptor M4 (Mus musculus)",
    "pKi": 6.40
  },
  {
    "Molecule": "CCN(CC)CC1CCCCN1CC(=O)N1c2ccccc2C(=O)Nc2cccnc21 (stereo unspecified)",
    "Assay System": "Muscarinic acetylcholine receptor M4 (Mus musculus)",
    "pKi": 5.80
  },
  {
    "Molecule": "C[N+]1(C)CCC(OC(=O)C(c2ccccc2)c2ccccc2)CC1",
    "Assay System": "Muscarinic acetylcholine receptor M4 (Mus musculus)",
    "pKi": 8.25
  }
]

**Q:** Reported pKi, molecule O[Si](CCCN1CCCCC1)(c1ccccc1)C1CCCCC1 (stereo unspecified) : ____
**A:** 7.00

**Q:** Can you check C[C@H]1OC(=O)C2C[C@H]3CCCC[C@@H]3[C@@H](/C=C/[C@@H]3CCC[C@H](C)N3C)C21 (stereo partly specified) next?
**A:** 7.22

---

Target: Muscarinic acetylcholine receptor M2 (Rattus norvegicus, UniProt P10980)
Sequence (P10980 whole entry): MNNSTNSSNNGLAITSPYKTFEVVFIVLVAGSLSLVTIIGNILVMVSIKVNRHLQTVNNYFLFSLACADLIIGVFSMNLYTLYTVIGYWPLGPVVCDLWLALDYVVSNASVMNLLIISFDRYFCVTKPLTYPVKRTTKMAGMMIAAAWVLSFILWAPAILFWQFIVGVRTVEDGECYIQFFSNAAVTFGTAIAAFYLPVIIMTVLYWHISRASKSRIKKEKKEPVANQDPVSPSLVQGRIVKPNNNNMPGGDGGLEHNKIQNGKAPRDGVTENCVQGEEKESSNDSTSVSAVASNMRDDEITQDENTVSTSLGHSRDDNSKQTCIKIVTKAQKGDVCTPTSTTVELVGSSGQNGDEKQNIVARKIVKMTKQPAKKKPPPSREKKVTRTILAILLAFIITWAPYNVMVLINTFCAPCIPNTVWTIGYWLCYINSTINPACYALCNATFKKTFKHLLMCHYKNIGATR
Outcome Measure: pKi
To interpret pKi, take it as minus log10 of a concentration measured in moles per litre.

**Q:** Find pKi (Muscarinic acetylcholine receptor M2 (Rattus norvegicus, UniProt P10980)) for the entry C[C@H]1OC(=O)C2C[C@H]3CCCC[C@@H]3[C@@H](/C=C/[C@@H]3CCC[C@H](C)N3C)C21 (stereo partly specified)
**A:** 7.82

---

molecular target: Muscarinic acetylcholine receptor M3 (Rattus norvegicus)
Sequence (P08483 whole entry): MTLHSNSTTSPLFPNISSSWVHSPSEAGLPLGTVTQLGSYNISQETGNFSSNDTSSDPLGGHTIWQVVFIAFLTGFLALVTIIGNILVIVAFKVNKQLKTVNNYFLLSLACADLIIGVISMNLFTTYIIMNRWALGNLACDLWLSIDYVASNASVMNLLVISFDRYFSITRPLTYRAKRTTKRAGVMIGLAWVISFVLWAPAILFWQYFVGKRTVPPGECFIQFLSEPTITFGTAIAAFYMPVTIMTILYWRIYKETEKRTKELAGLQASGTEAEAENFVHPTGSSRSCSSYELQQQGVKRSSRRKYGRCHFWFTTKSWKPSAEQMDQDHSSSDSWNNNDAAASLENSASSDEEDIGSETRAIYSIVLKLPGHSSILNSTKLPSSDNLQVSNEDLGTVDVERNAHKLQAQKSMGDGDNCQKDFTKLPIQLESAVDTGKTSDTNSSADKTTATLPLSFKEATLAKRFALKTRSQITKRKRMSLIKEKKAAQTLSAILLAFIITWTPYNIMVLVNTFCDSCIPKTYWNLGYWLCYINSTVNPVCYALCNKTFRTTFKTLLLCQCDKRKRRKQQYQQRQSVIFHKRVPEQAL
Listing of recorded Ki by entry.
# unit: nM | format: bare number

[
  {
    "Molecule": "C[C@H]1OC(=O)C2C[C@H]3CCCC[C@@H]3[C@@H](/C=C/[C@@H]3CCC[C@H](C)N3C)C21 (some centres not stated)",
    "Assay System": "Muscarinic acetylcholine receptor M3 (Rattus norvegicus)",
    "Value": 900
  }
]

Consider the additional molecule presented here.
**Q:** Find Ki (Muscarinic acetylcholine receptor M3 (Rattus norvegicus)) for the entry O[Si](CCCN1CCCCC1)(c1ccccc1)C1CCCCC1 (configuration not stated)
**A:** 50
